Examples of compounds with documented TGI follow.
Test system: U251 CNS
Assay: NCI tumour cell line growth inhibition, 48 h

Below, 6 compounds whose answers are already recorded.
INSERT INTO results (compound, assay_metric, data_value) VALUES
  ('O=C(NNC(=O)c1ccccc1O)c1ccccc1O', 'TGI', '> 100 µM'),
  ('CCN(CC)CCC(=O)NC1c2ccccc2Oc2c(C)cccc21 (stereo not given)', 'TGI', '> 100 µM'),
  ('COC1CC2C3/C(=N/Nc4ccc([N+](=O)[O-])cc4[N+](=O)[O-])CCC2(C)C3C1 (stereo not given)', 'TGI', '> 10 µM'),
  ('O=C(N/S(=N/S(=O)(=O)c1ccc(Br)cc1)C(Cl)(Cl)Cl)c1ccccc1 (stereo not given)', 'TGI', '> 100 µM'),
  ('CCOC(=O)NC(Nc1ncn(C(NC(=O)OCC)(C(F)(F)F)C(F)(F)F)n1)(C(F)(F)F)C(F)(F)F', 'TGI', '> 100 µM'),
  ('O=C(NCCc1[nH]nc2c1C(=O)C=C(Nc1ccccc1)C2=O)OCc1ccccc1', 'TGI', '> 100 µM');

Now look at this entry.
Lookup: For U251 CNS, provide TGI of COc1ccc(CCn2c3c(c4c(O)cccc42)C(=O)c2ccccc2-3)cc1OC please.
Found: > 100 µM
